# PROTOCOL_DESCRIPTION: Inhibition of AgrC-2 in Staphylococcus aureus AH430 incubated for 24 hrs by fluorescence assay
Where a SMILES comes first, the peptide text is derived from it. Bridges are numbered along the chain shown (N, C = ends). [ ]: non-standard residue; d: D form. The star is where a group is joined. NMeF = CN[C@@H](Cc1ccccc1)C(=O)O; Pent4ynoyl = C#CCCC(=O)*; Dap = NC[C@H](N)C(=O)O; AEEA = NCCOCCOCC(=O)O; Aoc = NCCCCCCCC(=O)O; Mpa = O=C(O)CCS
RECORDED_ENDPOINT: IC50

Here is how some molecules turned out for IC50.
- MOLECULE: "CC(=O)N[C@@H]1C/C=C\\[C@H](Cc2ccccc2)NC(=O)[C@H](CC(C)C)NC(=O)[C@H](CO)NC(=O)[C@H](CO)NC1=O"
  RECORDED_ENDPOINT: "IC50"
  REPORTED_VALUE: "> 10 µM"
- MOLECULE: "CC(C)C[C@@H]1NC(=O)[C@H](CC(C)C)NC(=O)[C@H](Cc2ccccc2)NC(=O)[C@H](C)NC(=O)[C@@H](N)CNC1=O (H-[Dap]AFLL; lactam 1-C)"
  RECORDED_ENDPOINT: "IC50"
  REPORTED_VALUE: "0.0139 µM"

For every item in the list below, what is its measured IC50?
1. CC(=O)N[C@H]1CSC(=O)[C@H](Cc2ccccc2)NC(=O)[C@H](Cc2ccccc2)NC(=O)CCCCCCCCNC1=O
2. O=C1COCCOCCNC(=O)[C@H](NC(=O)Cc2ccccc2)CSC(=O)[C@H](Cc2cccc(Cl)c2)NC(=O)[C@H](CC2CCCC2)N1
3. CC(=O)N[C@H]1CNC(=O)[C@H](Cc2ccccc2)NC(=O)[C@H](Cc2ccccc2)NC(=O)COCCOCCNC1=O (Ac-[Dap][AEEA]FF; lactam 1-C)
4. CC[C@H](C)[C@H](N)C(=O)N[C@@H](CC(N)=O)C(=O)N[C@H]1CNC(=O)[C@H](CC(C)C)NC(=O)[C@H](CC(C)C)NC(=O)[C@H](Cc2ccccc2)NC(=O)[C@H](CC(=O)O)NC1=O (H-IN[Dap]DFLL; lactam 3-C)
5. CC(=O)N[C@H]1CSC(=O)[C@H](Cc2ccccc2)NC(=O)[C@H](Cc2ccccc2)NC(=O)COCCOCCNC1=O (Ac-C[AEEA]FF; thioester 1-C)
6. CC[C@H](C)[C@H](N)C(=O)N[C@@H](CC(N)=O)C(=O)N[C@H]1CNC(=O)[C@H](CC(C)C)NC(=O)[C@H](CC(C)C)NC(=O)[C@H](Cc2ccccc2)NC(=O)[C@H](C)NC1=O (H-IN[Dap]AFLL; lactam 3-C)
7. CC[C@@H](C)[C@H](NC(C)=O)C(=O)N[C@H](CC(N)=O)C(=O)N[C@@H]1CSC(=O)[C@@H](Cc2ccccc2)NC(=O)[C@@H](CC(C)C)NC(=O)[C@@H](CC(C)C)NC(=O)[C@@H](C)NC1=O
8. CC(=O)N[C@H]1CSC(=O)[C@H](Cc2ccccc2)NC(=O)[C@H](Cc2ccccc2)NC(=O)CCCCCCCNC1=O (Ac-C[Aoc]FF; thioester 1-C)

1. 0.479 µM
2. 0.00647 µM
3. > 10 µM
4. > 1 µM
5. 0.583 µM
6. 0.00219 µM
7. 0.000429 to 0.0035 µM
8. 0.495 µM

Hi! Can you tell me IC50 for each of these molecules?
1. C#CCCC(=O)N[C@H](C(=O)N[C@@H](CC(N)=O)C(=O)N[C@H]1CSC(=O)[C@H](CC(C)C)NC(=O)[C@H](CC(C)C)NC(=O)[C@H](Cc2ccccc2)NC(=O)[C@H](C)NC1=O)[C@@H](C)CC (Pent4ynoyl-INCAFLL; thioester 3-C)
2. CC(C)C[C@@H]1NC(=O)[C@H](CO)NC(=O)[C@H](CO)NC(=O)CCSC(=O)[C@H](Cc2ccccc2)N(C)C1=O ([Mpa]SSL[NMeF]; thioester 1-C)
3. CC(=O)N[C@H]1CNC(=O)[C@H](Cc2ccccc2)NC(=O)[C@H](Cc2ccccc2)NC(=O)CCCCCCCNC1=O (Ac-[Dap][Aoc]FF; lactam 1-C)

1: > 1 µM; 2: 0.0009 µM; 3: 2.2 µM
